- EXPERIMENTAL SYSTEM: Sialic acid-binding Ig-like lectin 9 (Homo sapiens) (UniProt Q9Y336)
- Sequence (Q9Y336 whole entry): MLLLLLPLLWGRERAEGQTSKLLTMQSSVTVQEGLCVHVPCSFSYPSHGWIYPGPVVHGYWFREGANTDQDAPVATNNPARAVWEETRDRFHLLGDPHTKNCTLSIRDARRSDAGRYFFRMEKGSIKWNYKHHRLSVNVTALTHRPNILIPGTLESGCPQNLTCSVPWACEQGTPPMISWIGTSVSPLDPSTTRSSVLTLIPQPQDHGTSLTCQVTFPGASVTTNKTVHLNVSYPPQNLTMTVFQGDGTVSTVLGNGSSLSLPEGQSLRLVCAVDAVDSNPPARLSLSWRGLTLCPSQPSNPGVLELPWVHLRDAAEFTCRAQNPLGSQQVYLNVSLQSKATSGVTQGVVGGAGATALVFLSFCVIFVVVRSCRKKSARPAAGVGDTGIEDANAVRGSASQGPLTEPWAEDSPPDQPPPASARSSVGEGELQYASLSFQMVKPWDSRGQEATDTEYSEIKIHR
- EXPERIMENT SUMMARY: Hs-Siglec9 ALPHAscreen SOP 20170721
- Parameters: scale not given: direction of the effect not stated beside the values
- REPORTED CONDITIONS: 10 µM
MEASUREMENT KIND: Percent Effect (%)
Please give a number only; it is taken to be in %.

{"MOLECULE": "NCC1(c2cccc(C(F)(F)F)c2)CCOCC1", "MEASUREMENT KIND": "Percent Effect", "TEST RESULT": -3.19}
{"MOLECULE": "Cc1noc(C)c1CN1CCO[C@H]2CN(CC3CC3)C[C@H]21", "MEASUREMENT KIND": "Percent Effect", "TEST RESULT": 9.57}
{"MOLECULE": "CC[C@H](N)Cn1nc(-c2cccs2)oc1=O", "MEASUREMENT KIND": "Percent Effect", "TEST RESULT": -5.1}
{"MOLECULE": "c1csc(CN2CC[C@H]3C[C@H](c4ccncn4)O[C@@H]3C2)c1", "MEASUREMENT KIND": "Percent Effect", "TEST RESULT": -6.78}
{"MOLECULE": "Cc1n[nH]c2c1C(c1ccsc1)SCC(=O)N2 (stereo not given)", "MEASUREMENT KIND": "Percent Effect", "TEST RESULT": -13.4}
{"MOLECULE": "O=C1CC[C@H]2[C@H](CCN2Cc2ccccn2)N1CC1CCOCC1", "MEASUREMENT KIND": "Percent Effect", "TEST RESULT": -1.65}
{"MOLECULE": "CCN(Cc1cccnc1)CC1CCCO1 (stereo not given)", "MEASUREMENT KIND": "Percent Effect", "TEST RESULT": -1.05}
{"MOLECULE": "CC(Cn1cccn1)NCc1csc(-c2cccs2)n1 (stereo not given)", "MEASUREMENT KIND": "Percent Effect", "TEST RESULT": -3.93}

Lookup: Percent Effect / Sialic acid-binding Ig-like lectin 9 (Homo sapiens) (UniProt Q9Y336) / O=C(N[C@H]1CN[C@H]2CCCO[C@H]21)c1ccno1
4.01

Lookup: Percent Effect / Sialic acid-binding Ig-like lectin 9 (Homo sapiens) (UniProt Q9Y336) / CN1CCC2(CC1)CNC(=O)c1ccccc1O2
4.99

Lookup: Percent Effect / Sialic acid-binding Ig-like lectin 9 (Homo sapiens) (UniProt Q9Y336) / Cc1n[nH]c2c1C(c1cnn(C)c1)SCC(=O)N2 (stereo not given)
3.08

Lookup: Percent Effect / Sialic acid-binding Ig-like lectin 9 (Homo sapiens) (UniProt Q9Y336) / NC(=O)CN1CCCN(C(=O)Cc2ccc3c(c2)OCO3)CC1
2.43

Lookup: Percent Effect / Sialic acid-binding Ig-like lectin 9 (Homo sapiens) (UniProt Q9Y336) / Cc1nc(C2(NCC(=O)NC(=O)NCc3cccs3)CCCCC2)no1
-3.65

Lookup: Percent Effect / Sialic acid-binding Ig-like lectin 9 (Homo sapiens) (UniProt Q9Y336) / CN1CCC2(COCc3cnc(N4CCOCC4)nc32)C1 (stereo not given)
4.35

Lookup: Percent Effect / Sialic acid-binding Ig-like lectin 9 (Homo sapiens) (UniProt Q9Y336) / CO[C@@H]1CN(Cc2scnc2C)[C@@H]2CCCO[C@@H]21
4.17

Lookup: Percent Effect / Sialic acid-binding Ig-like lectin 9 (Homo sapiens) (UniProt Q9Y336) / Cc1cnc(N2CCCC3(CCCN(C)C3)C2)nc1 (stereo not given)
4.33

Lookup: Percent Effect / Sialic acid-binding Ig-like lectin 9 (Homo sapiens) (UniProt Q9Y336) / C[C@@H]1C(=O)NC[C@H]2CN(Cc3ccsc3)C[C@H]21
1.3

Lookup: Percent Effect / Sialic acid-binding Ig-like lectin 9 (Homo sapiens) (UniProt Q9Y336) / Cc1nc(NCC2CC2)nc2c1COCC21CCN(C)C1 (stereo not given)
-4.41

Lookup: Percent Effect / Sialic acid-binding Ig-like lectin 9 (Homo sapiens) (UniProt Q9Y336) / O=C1CSC(c2ccc(O)c(Cl)c2)c2c(n(C3CCOCC3)[nH]c2=O)N1 (stereo not given)
4.6

Lookup: Percent Effect / Sialic acid-binding Ig-like lectin 9 (Homo sapiens) (UniProt Q9Y336) / NC(=O)CN1CCCN(C(=O)Cc2ccc3ccccc3c2)CC1
1.74
